Entries annotated with measured pEC50
# assay.system: RORγ-LBD (Homo sapiens)
# Sequence (P51449 269-508 limits assumed): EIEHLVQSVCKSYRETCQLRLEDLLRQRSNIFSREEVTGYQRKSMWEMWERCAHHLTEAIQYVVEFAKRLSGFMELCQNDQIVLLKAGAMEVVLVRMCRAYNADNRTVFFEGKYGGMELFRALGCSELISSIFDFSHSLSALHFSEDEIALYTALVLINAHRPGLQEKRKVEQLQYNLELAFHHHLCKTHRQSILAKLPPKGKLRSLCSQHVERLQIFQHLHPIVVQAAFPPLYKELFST
# procedure.details: RORγ-Ligand Binding Domain (LBD) TR-FRET Assay
pEC50: −log10 of the molar value.
parameter: pEC50

- compound: "CC(C)Cn1cc(-c2ccc3c(c2)N(S(=O)(=O)c2cccc(C(F)(F)F)c2)C[C@H](CCC(=O)O)O3)cn1"
  assay.system: "RORγ-LBD (Homo sapiens)"
  reported.result: "5.30 to 6.30"
- compound: "CS(=O)(=O)c1ccccc1-c1ccc2c(c1)N(S(=O)(=O)c1cccc(C(F)(F)F)c1)C[C@H](CCC(=O)O)O2"
  assay.system: "RORγ-LBD (Homo sapiens)"
  reported.result: "5.30 to 6.30"
- compound: "O=C(O)CC[C@H]1CN(S(=O)(=O)c2cccc(C(F)(F)F)c2)c2cc(-c3ccc(Cl)cc3)ccc2O1"
  assay.system: "RORγ-LBD (Homo sapiens)"
  reported.result: "> 6.30"
- compound: "O=c1[nH]c(OCCC[C@H]2CN(S(=O)(=O)c3cccc(C(F)(F)F)c3)c3cc(-c4cccc(C(F)(F)F)n4)ccc3O2)no1 [Compound 36C]"
  assay.system: "RORγ-LBD (Homo sapiens)"
  reported.result: "> 6.30"
- compound: "CC(C)c1cccc(S(=O)(=O)N2C[C@H](CNC(=O)C(C)(C)O)Oc3ccc(-c4cc(F)ccc4F)cc32)c1 [Compound 30K]"
  assay.system: "RORγ-LBD (Homo sapiens)"
  reported.result: "> 6.30"
- compound: "CC(C)c1cccc(S(=O)(=O)N2C[C@H](CCc3n[nH]c(=O)o3)Oc3ccc(-c4cccc(N(C)C)n4)cc32)c1 [Compound 28F]"
  assay.system: "RORγ-LBD (Homo sapiens)"
  reported.result: "> 6.30"
- compound: "Cc1ccc(Cl)cc1-c1ccc2c(c1)N(S(=O)(=O)c1cccc(C(F)(F)F)c1)C[C@H](CC(C)(C)C(=O)O)O2 [Compound 32AR]"
  assay.system: "RORγ-LBD (Homo sapiens)"
  reported.result: "> 6.30"
- compound: "CC(C)(CC[C@H]1CN(S(=O)(=O)c2cccc(OC(F)F)c2)c2cc(-c3cc(F)ccc3F)ccc2O1)C(=O)O [Compound 32T]"
  assay.system: "RORγ-LBD (Homo sapiens)"
  reported.result: "> 6.30"
- compound: "O=C(O)[C@H]1C[C@H](C[C@H]2CN(S(=O)(=O)c3cccc(C(F)(F)F)c3)c3cc(-c4cc(F)cc(F)c4Cl)ccc3O2)C1 [Compound 60B]"
  assay.system: "RORγ-LBD (Homo sapiens)"
  reported.result: "> 6.30"
- compound: "CC(=O)NC1(C[C@H]2CN(S(=O)(=O)c3cccc(C(F)(F)F)c3)c3cc(-c4cc(F)cc(OC(F)F)c4)ccc3O2)CCOCC1 [Compound 78I]"
  assay.system: "RORγ-LBD (Homo sapiens)"
  reported.result: "> 6.30"
- compound: "C[C@H](CC(=O)O)[C@H]1CN(S(=O)(=O)c2cccc(C(F)(F)F)c2)c2cc(-c3cc(F)cc(F)c3Cl)ccc2O1 [Compound 80B]"
  assay.system: "RORγ-LBD (Homo sapiens)"
  reported.result: "> 6.30"
- compound: "O=C(O)CC[C@H]1CN(S(=O)(=O)c2cccc(C(F)(F)F)c2)c2cc(-c3cccn4ccnc34)ccc2O1"
  assay.system: "RORγ-LBD (Homo sapiens)"
  reported.result: "> 6.30"
- compound: "Cn1cc(C(=O)NC[C@H]2CN(S(=O)(=O)c3cccc(C(F)(F)F)c3)c3cc(-c4cccc(C(F)(F)F)n4)ccc3O2)c(C(F)(F)F)n1 [Compound 30BN]"
  assay.system: "RORγ-LBD (Homo sapiens)"
  reported.result: "5.30 to 6.30"
- compound: "COc1cccc(-c2cc(F)c3c(c2)N(S(=O)(=O)c2cccc(C(F)(F)F)c2)C[C@H](CCC(=O)N2CCC(C(=O)O)CC2)O3)c1 [Compound 23H]"
  assay.system: "RORγ-LBD (Homo sapiens)"
  reported.result: "> 6.30"
- compound: "Cc1ccccc1-c1ccc2c(c1)N(S(=O)(=O)c1cccc(C(F)(F)F)c1)C[C@H](CCC(=O)O)O2"
  assay.system: "RORγ-LBD (Homo sapiens)"
  reported.result: "> 6.30"
- compound: "CC(C)(O)C(=O)NC[C@H]1CN(S(=O)(=O)c2cccc(C(F)(F)F)c2)c2cc(-c3cc(F)ccc3F)ccc2O1"
  assay.system: "RORγ-LBD (Homo sapiens)"
  reported.result: "> 6.30"
- compound: "CN(C)c1cccc(-c2ccc3c(c2)N(S(=O)(=O)c2cccc(C(F)(F)F)c2)C[C@H](CNC(=O)C(C)(C)O)O3)n1 [Compound 30H]"
  assay.system: "RORγ-LBD (Homo sapiens)"
  reported.result: "> 6.30"
- compound: "COc1cccc(-c2ccc3c(c2)N(S(=O)(=O)c2cccc(C(F)(F)F)c2)C[C@H](CCC(=O)NCC(=O)O)O3)c1 [Compound 23K]"
  assay.system: "RORγ-LBD (Homo sapiens)"
  reported.result: "> 6.30"
- compound: "O=C(CC[C@H]1CN(S(=O)(=O)c2cccc(C(F)(F)F)c2)c2cc(-c3ccc(F)cc3F)ccc2O1)NS(=O)(=O)C1CC1 [Compound 43B]"
  assay.system: "RORγ-LBD (Homo sapiens)"
  reported.result: "> 6.30"
- compound: "COc1cccc(-c2ccc3c(c2)N(S(=O)(=O)c2cccc(C(F)(F)F)c2)C[C@H](CC(C)(C)C(=O)O)O3)c1 [Compound 32B]"
  assay.system: "RORγ-LBD (Homo sapiens)"
  reported.result: "> 6.30"
- compound: "Cc1ccc(N(C)C)nc1-c1ccc2c(c1)N(S(=O)(=O)c1cccc(C(F)(F)F)c1)C[C@H](CCC(=O)O)O2"
  assay.system: "RORγ-LBD (Homo sapiens)"
  reported.result: "5.30 to 6.30"
- compound: "O=C(O)CC[C@H]1CN(S(=O)(=O)c2cccc(C(F)(F)F)c2)c2cc(-c3cccc(F)c3F)cc(F)c2O1 [Compound 22E]"
  assay.system: "RORγ-LBD (Homo sapiens)"
  reported.result: "> 6.30"
- compound: "CC(C)(C[C@H]1CN(S(=O)(=O)c2cccc(C(F)(F)F)c2)c2cc(-c3ccccc3C#N)ccc2O1)C(=O)O [Compound 32AF]"
  assay.system: "RORγ-LBD (Homo sapiens)"
  reported.result: "> 6.30"
- compound: "COc1cc(S(=O)(=O)N2C[C@H](CCc3n[nH]c(=O)o3)Oc3ccc(-c4cccc(C(F)(F)F)n4)cc32)ccc1F [Compound 28K]"
  assay.system: "RORγ-LBD (Homo sapiens)"
  reported.result: "> 6.30"
- compound: "O=C(O)C1(C[C@H]2CN(S(=O)(=O)c3cccc(C(F)(F)F)c3)c3cc(-c4cc(F)cc(F)c4Cl)ccc3O2)COC1 [Compound 51B]"
  assay.system: "RORγ-LBD (Homo sapiens)"
  reported.result: "> 6.30"
- compound: "O=C(O)C1(C[C@H]2CN(S(=O)(=O)c3cccc(C(F)(F)F)c3)c3cc(-c4cccc(Cl)c4F)ccc3O2)CCOCC1 [Compound 78F]"
  assay.system: "RORγ-LBD (Homo sapiens)"
  reported.result: "> 6.30"
